Target: T1, human Ang-2 (human, UniProt O15123)
T1 chain: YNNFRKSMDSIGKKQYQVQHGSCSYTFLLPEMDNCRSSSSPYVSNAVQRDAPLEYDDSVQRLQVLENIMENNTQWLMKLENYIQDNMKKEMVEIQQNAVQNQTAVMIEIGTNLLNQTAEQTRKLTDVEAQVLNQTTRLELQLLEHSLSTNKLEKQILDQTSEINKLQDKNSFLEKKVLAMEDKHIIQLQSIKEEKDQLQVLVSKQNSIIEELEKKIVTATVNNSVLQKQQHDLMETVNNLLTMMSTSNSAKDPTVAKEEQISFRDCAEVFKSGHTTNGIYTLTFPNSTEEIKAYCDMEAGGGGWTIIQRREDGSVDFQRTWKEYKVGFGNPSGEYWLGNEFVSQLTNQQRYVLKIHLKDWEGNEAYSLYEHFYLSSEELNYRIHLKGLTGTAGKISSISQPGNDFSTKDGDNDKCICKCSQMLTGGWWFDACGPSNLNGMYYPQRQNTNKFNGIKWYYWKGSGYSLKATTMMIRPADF
Experiment: competition ELISA vs Tie-2
Primed or numbered codes have the meaning given here. Where no end group is shown, it is not given here. [ ]: non-standard residue; d: D form. Fc(4) = non-antigen-binding fragment of an antibody (from proteolytic digestion of a whole antibody); Fc(7) = Fc domain, peptide fused N- or C-terminal to it
Kindly supply the reported IC50 values for the records listed here.
Give bare numbers, in nM.

                                     binder  observed_value
0  M[Fc(4)]GGGGGAQSTIGDMCEWDPWTCAHMQVDLE (not fully specified; cysteine pairing not given here) [Con4-8 (C)]             1.2

Fill in IC50 for each of the 3 binders listed.
1. M[Fc(7)]GGGGGAQVWRSQVCQWDPWTCNLGGDWLE (not fully specified (bridges); cysteine pairing not given here) [Con4-22 (C)]
2. M[Fc(4)]GGGGGAQSISHEECEWDPWTCEHMQVGLE (not fully specified; cysteine pairing not given here) [Con4-43 (C)]
3. M[Fc(4)]GGGGGAQTTIGSMCQWDPWTCEHMQGGLE (not fully specified (bridges); cysteine pairing not given here) [Con4-C4 (C)]

Outgoing:
1. 150
2. 0.18
3. 9.8
